Molecular target: voltage-gated potassium channel Kv1.3 (Homo sapiens, UniProt P22001)
Sequence (P22001 whole entry): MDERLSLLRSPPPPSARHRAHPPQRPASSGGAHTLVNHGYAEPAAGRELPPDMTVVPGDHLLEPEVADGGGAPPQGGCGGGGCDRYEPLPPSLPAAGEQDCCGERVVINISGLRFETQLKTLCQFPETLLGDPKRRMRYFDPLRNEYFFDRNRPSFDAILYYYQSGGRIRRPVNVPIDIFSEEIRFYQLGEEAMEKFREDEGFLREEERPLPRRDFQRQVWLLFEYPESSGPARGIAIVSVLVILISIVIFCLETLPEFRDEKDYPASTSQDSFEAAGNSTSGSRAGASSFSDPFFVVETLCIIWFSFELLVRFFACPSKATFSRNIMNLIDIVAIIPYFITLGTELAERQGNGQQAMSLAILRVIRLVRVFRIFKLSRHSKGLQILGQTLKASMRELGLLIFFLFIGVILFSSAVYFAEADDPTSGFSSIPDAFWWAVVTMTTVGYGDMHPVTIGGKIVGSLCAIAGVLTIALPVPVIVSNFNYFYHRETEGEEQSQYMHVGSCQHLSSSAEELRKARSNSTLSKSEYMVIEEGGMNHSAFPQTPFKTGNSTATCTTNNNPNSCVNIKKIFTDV
Assay: whole-cell patch clamp, voltage ramp, endogenous Kv1.[…] current in Jurkat T cells
readout: EC50 (µM)

1) CC[C@H](C)C(=O)O[C@H]1CCC=C2C=C[C@H](C)[C@H](CC[C@@H]3C[C@@H](O)CC(=O)O3)[C@H]21 = 6.04
2) CCC(C)(C)C(=O)O[C@H]1C[C@@H](C)C=C2C=C[C@H](C)[C@H](CC[C@@H]3C[C@@H](O)CC(=O)O3)[C@H]21 = 4.85
